- Method notes: PK protocol, intravenous administration
- Type: in vivo, male Sprague Dawley rats
- Settings: male, Sprague Dawley, plasma, dose 1 mg/kg, rat
Measured property: half-life (h)

Molecule	half-life [h]
CC(C)c1cc(F)cc(-c2cccnc2)c1NC(=O)NS(=O)(=O)c1ccn(C[C@@H](C)O)n1 [Example 60]	1
COc1cc(-c2ccc3c(c2NC(=O)NS(=O)(=O)N(C)C2CCN(C)C2)CCC3)ccn1 (stereo not shown) [Example 122]	11.1

1. CC(C)c1cc(F)cc(-c2ccnc(O)c2)c1NC(=O)NS(=O)(=O)c1ccn(C(C)C)n1 [Example 25]
2. CC(C)c1cc(F)cc(-c2ccnc(C#N)c2)c1NC(=O)NS(=O)(=O)c1ccn(C(C)C)n1 [Example 28]
Input: Of 1 versus 2 , which is the one with smaller reported half-life? Please identify the chosen entry by its label.
Output: 1
